Origin of measurements: patent US5622947A

# STUDY_TARGET: V1 Recepter (rat liver plasma membrane preparations) (Rattus norvegicus)
# Construct: rat liver plasma membrane preparations
# Sequence (P30560 whole entry): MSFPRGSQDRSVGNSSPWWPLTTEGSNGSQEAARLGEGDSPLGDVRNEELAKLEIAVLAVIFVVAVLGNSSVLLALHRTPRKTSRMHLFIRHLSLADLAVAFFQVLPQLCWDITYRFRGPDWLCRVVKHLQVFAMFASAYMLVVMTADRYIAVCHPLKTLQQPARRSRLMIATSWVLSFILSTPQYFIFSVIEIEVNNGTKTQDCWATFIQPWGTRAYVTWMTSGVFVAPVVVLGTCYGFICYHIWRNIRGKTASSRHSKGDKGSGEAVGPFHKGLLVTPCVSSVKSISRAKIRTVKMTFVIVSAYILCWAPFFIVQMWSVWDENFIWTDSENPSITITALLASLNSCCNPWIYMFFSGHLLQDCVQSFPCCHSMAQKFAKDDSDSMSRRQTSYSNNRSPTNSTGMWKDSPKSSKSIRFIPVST
# ASSAY_PROTOCOL: V1 Recepter binding assay
# MEASUREMENT_CONDITIONS: [3H]-Arg-vasopressin 2×10^-10 M, 37° C., 10 minutes, pH 8.0, rat liver plasma membrane
READOUT_TYPE: IC50 (nM)

| COMPOUND | READOUT_TYPE | UNITS | MEASURED_VALUE |
| --- | --- | --- | --- |
| COc1cc(NC(=O)c2ccccc2Cl)ccc1C(=O)N1CCCC(CC(=O)N(C)CCO)c2cc(Cl)ccc21 (stereo not shown) | IC50 | nM | 10 |
| COc1cc(NC(=O)c2ccccc2Cl)ccc1C(=O)N1CCCC(OCCS(=O)(=O)c2ncc[nH]2)c2cc(Cl)ccc21 (stereo not shown) | IC50 | nM | 91 |
| COc1cc(C(=O)N2CCCCc3cc(Cl)ccc32)ccc1NC(=O)c1ccccc1OCCCn1cncn1 | IC50 | nM | 7 |
| COc1cc(C(=O)N2CCCC(CC(=O)N(C)CCN(C)C)c3cc(Cl)ccc32)ccc1NC(=O)c1ccccc1Br (stereo not shown) | IC50 | nM | 1.8 |

---

# STUDY_TARGET: V2 Recepter (rat kidney plasma membrane preparations) (Rattus norvegicus, UniProt Q00788)
# Construct: rat kidney plasma membrane preparations
# Sequence (Q00788 whole entry): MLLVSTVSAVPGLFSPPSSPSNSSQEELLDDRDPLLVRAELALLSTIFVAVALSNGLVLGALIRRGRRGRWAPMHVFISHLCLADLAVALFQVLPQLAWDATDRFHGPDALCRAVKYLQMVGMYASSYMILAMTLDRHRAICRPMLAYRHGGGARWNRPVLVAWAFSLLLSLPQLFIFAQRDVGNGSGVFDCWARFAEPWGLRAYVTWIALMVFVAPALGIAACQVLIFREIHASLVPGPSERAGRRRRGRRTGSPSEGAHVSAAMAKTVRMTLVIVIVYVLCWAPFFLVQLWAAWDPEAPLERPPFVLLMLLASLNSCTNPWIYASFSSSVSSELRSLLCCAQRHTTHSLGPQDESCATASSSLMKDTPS
# ASSAY_PROTOCOL: V2 Recepter binding assay
# MEASUREMENT_CONDITIONS: [3H]-Arg-vasopressin 4×10^-10 M, 4° C., pH 8.0, rat kidney plasma membrane
pIC50: −log10 of the molar value.
So basically: pIC50 at 8 or higher? That is T. Lower than 8? That is F.

| COMPOUND | ANSWER_LABEL |
| --- | --- |
| COc1cc(NC(=O)c2ccccc2Cl)ccc1C(=O)N1CCCC(OCCS(=O)(=O)c2ccncc2)c2cc(Cl)ccc21 (stereo not shown) | F |
| COc1cc(NC(=O)c2ccccc2Cl)ccc1C(=O)N1CCCC(CC(=O)N2CCCN(C)CC2)c2cc(Cl)ccc21 (stereo not shown) | T |
| COc1cc(NC(=O)c2ccccc2Cl)ccc1C(=O)N1CCCC(OCCNC(C)=N)c2cc(Cl)ccc21 (stereo not shown) | T |

---

# STUDY_TARGET: V2 Recepter (rat kidney plasma membrane preparations) (Rattus norvegicus)
# Construct: rat kidney plasma membrane preparations
# ASSAY_PROTOCOL: V2 Recepter binding assay
# MEASUREMENT_CONDITIONS: [3H]-Arg-vasopressin 4×10^-10 M, 4° C., pH 8.0, rat kidney plasma membrane
READOUT_TYPE: log10 of IC50 (log10 of the value in nM)

| MOLECULE | log10 of IC50 |
| --- | --- |
| COc1cc(NC(=O)c2ccccc2Cl)ccc1C(=O)N1CCCC(CCN2CCN(S(C)(=O)=O)CC2)c2cc(Cl)ccc21 (stereo not shown) | 1.00 |
| CNC(=O)N1CCN(CCC2CCCN(C(=O)c3ccc(NC(=O)c4ccccc4Cl)cc3OC)c3ccc(Cl)cc32)CC1 (stereo not shown) | 0.70 |
| COc1cc(NC(=O)c2ccccc2Cl)ccc1C(=O)N1CCCC(CC(=O)N2CCN(CCO)CC2)c2cc(Cl)ccc21 (single isomer, unassigned) | 0.90 |
| COc1cc(C(=O)N2CCCC(OCC(=O)NCCN3CCOCC3)c3cc(Cl)ccc32)ccc1NC(=O)c1ccccc1Br (stereo not shown) | 1.28 |
| C#CCNCCOC1CCCN(C(=O)c2ccc(NC(=O)c3ccccc3Cl)cc2OC)c2ccc(Cl)cc21 (stereo not shown) | 0.85 |
| COc1cc(NC(=O)c2ccccc2C)ccc1C(=O)N1CCC=C(CC(=O)N2CCN(C)CC2)c2cc(F)ccc21 | 1.77 |
| COc1cc(NC(=O)c2ccccc2Cl)ccc1C(=O)N1CCCC(OCCNCC#N)c2cc(Cl)ccc21 (stereo not shown) | 0.90 |

---

Listing of entries alongside the reported log10(IC50).
# STUDY_TARGET: V2 Recepter (rat kidney plasma membrane preparations) (Rattus norvegicus, UniProt Q00788)
# Construct: rat kidney plasma membrane preparations
# ASSAY_PROTOCOL: V2 Recepter binding assay
# MEASUREMENT_CONDITIONS: [3H]-Arg-vasopressin 4×10^-10 M, 4° C., pH 8.0, rat kidney plasma membrane
READOUT_TYPE: log10(IC50) (log10 of the value in nM)

| MOLECULE | STUDY_TARGET | log10(IC50) |
| --- | --- | --- |
| CCN(CC)CCN(C)C(=O)CC1CCCN(C(=O)c2ccc(NC(=O)c3ccccc3Br)c(OC)c2)c2ccc(Cl)cc21 (stereo not drawn) | V2 Recepter (rat kidney plasma membrane preparations) (Rattus norvegicus, UniProt Q00788) | 0.54 |
| COc1cc(NC(=O)c2ccccc2Cl)ccc1C(=O)N1CCCC(OCCSc2ccncc2)c2cc(Cl)ccc21 (stereo not drawn) | V2 Recepter (rat kidney plasma membrane preparations) (Rattus norvegicus, UniProt Q00788) | 1.08 |
| CNC(=S)NCCOC1CCCN(C(=O)c2ccc(NC(=O)c3ccccc3Cl)cc2OC)c2ccc(Cl)cc21 (stereo not drawn) | V2 Recepter (rat kidney plasma membrane preparations) (Rattus norvegicus, UniProt Q00788) | 1.69 |
| COc1cc(C(=O)N2CCCC(OCC(=O)N3CCCN(C)CC3)c3cc(Cl)ccc32)ccc1NC(=O)c1ccccc1Br (stereo not drawn) | V2 Recepter (rat kidney plasma membrane preparations) (Rattus norvegicus, UniProt Q00788) | 1.00 |
| Cc1cc(NC(=O)c2ccccc2Cl)ccc1C(=O)N1CCCC(CCN2CCCCC2)c2cc(Cl)ccc21 (stereo not drawn) | V2 Recepter (rat kidney plasma membrane preparations) (Rattus norvegicus, UniProt Q00788) | 0.95 |
| COc1cc(NC(=O)c2ccccc2Cl)ccc1C(=O)N1CCCC(CC(=O)NCc2ccccn2)c2cc(Cl)ccc21 (stereo not drawn) | V2 Recepter (rat kidney plasma membrane preparations) (Rattus norvegicus, UniProt Q00788) | 0.70 |
| COc1cc(C(=O)N2CCCCc3cc(Cl)ccc32)ccc1NC(=O)c1ccccc1OCCCN1CCC(NC(C)=O)CC1 (single isomer, unassigned) | V2 Recepter (rat kidney plasma membrane preparations) (Rattus norvegicus, UniProt Q00788) | 1.87 |
| COc1cc(C(=O)N2CCCCc3cc(Cl)ccc32)ccc1NC(=O)c1ccccc1OCCCn1cncn1 | V2 Recepter (rat kidney plasma membrane preparations) (Rattus norvegicus, UniProt Q00788) | 1.90 |
| Cc1cc(NC(=O)c2ccccc2Cl)ccc1C(=O)N1CCCC(CCn2cncn2)c2cc(Cl)ccc21 (stereo not drawn) | V2 Recepter (rat kidney plasma membrane preparations) (Rattus norvegicus, UniProt Q00788) | 0.88 |
| COc1cc(NC(=O)c2ccccc2Cl)ccc1C(=O)N1CCCC(OCC[S+]([O-])c2ccncc2)c2cc(Cl)ccc21 (stereo not drawn) | V2 Recepter (rat kidney plasma membrane preparations) (Rattus norvegicus, UniProt Q00788) | 1.34 |
| CCOC(=O)NCCOC1CCCN(C(=O)c2ccc(NC(=O)c3ccccc3Cl)cc2OC)c2ccc(Cl)cc21 (stereo not drawn) | V2 Recepter (rat kidney plasma membrane preparations) (Rattus norvegicus, UniProt Q00788) | 0.70 |
| COc1cc(NC(=O)c2ccccc2Cl)ccc1C(=O)N1CCCC(CC(=O)Nc2ccncc2)c2cc(Cl)ccc21 (stereo not drawn) | V2 Recepter (rat kidney plasma membrane preparations) (Rattus norvegicus, UniProt Q00788) | 0.60 |
| C#CCNCCC1CCCN(C(=O)c2ccc(NC(=O)c3ccccc3Cl)cc2C)c2ccc(Cl)cc21 (stereo not drawn) | V2 Recepter (rat kidney plasma membrane preparations) (Rattus norvegicus, UniProt Q00788) | 0.90 |
| CNC(=NC#N)NCCOC1CCCN(C(=O)c2ccc(NC(=O)c3ccccc3Cl)cc2OC)c2ccc(Cl)cc21 (stereo not drawn) | V2 Recepter (rat kidney plasma membrane preparations) (Rattus norvegicus, UniProt Q00788) | 1.65 |
| Cc1cc(NC(=O)c2ccccc2Cl)ccc1C(=O)N1CCCC(OCCn2cnnn2)c2cc(Cl)ccc21 (stereo not drawn) | V2 Recepter (rat kidney plasma membrane preparations) (Rattus norvegicus, UniProt Q00788) | 1.15 |
| COc1cc(NC(=O)c2ccccc2Cl)ccc1C(=O)N1CCCC(CC(=O)NCCN(C)CCO)c2cc(Cl)ccc21 (stereo not drawn) | V2 Recepter (rat kidney plasma membrane preparations) (Rattus norvegicus, UniProt Q00788) | 0.52 |
| Cc1cc(NC(=O)c2ccccc2Cl)ccc1C(=O)N1CCCC(CCN2CCCC2)c2cc(Cl)ccc21 (stereo not drawn) | V2 Recepter (rat kidney plasma membrane preparations) (Rattus norvegicus, UniProt Q00788) | 0.86 |
| COc1cc(NC(=O)c2ccccc2Cl)ccc1C(=O)N1CCCC(OCCS(=O)(=O)c2ncc[nH]2)c2cc(Cl)ccc21 (stereo not drawn) | V2 Recepter (rat kidney plasma membrane preparations) (Rattus norvegicus, UniProt Q00788) | 1.15 |
